# ASSAYED_SYSTEM: ScSla1-D1-D2
# PROCEDURE_TEXT: SPOT peptide array binding signal intensity (averaged, normalized) (arbitrary units (background-subtracted, floor 0; scale differs between SH3 domains)); higher = stronger binding of the SH3 domain to the peptide
REPORTED_PROPERTY: SPOT peptide array binding signal intensity
Give your answer as a number; write no unit.

// recorded SPOT peptide array binding signal intensity for NSVPIMPTLPPRPYI : 2

// recorded SPOT peptide array binding signal intensity for PLRRTVMSLPGNHDI : 305
